Provide the recorded pIC50 for the entries that follow.
tested on: LG0567-F671-PDC multi-cell spheroid viability; experiment: Anticancer human tumor LG0567-F671-PDC patient-derived lung adenocarcinoma cell line growth inhibition [IpAb]; details: curve of compound;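 also: viability read after 7 days of drug exposure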
pIC50: −log10 of the molar value.

Could I get pIC50 for every one of these entries?
1. CC(=O)c1c(C)c2cnc(Nc3ccc(N4CCNCC4)cn3)nc2n(C2CCCC2)c1=O
2. CCCS(=O)(=O)Nc1ccc(F)c(C(=O)c2c[nH]c3ncc(-c4ccc(Cl)cc4)cc23)c1F
3. C=CC(=O)N1CCN(c2nc(=O)n(-c3c(C)ccnc3C(C)C)c3nc(-c4c(O)cccc4F)c(F)cc23)C(C)C1 (centres undefined)
4. CC(C)n1nc(-c2ccc3oc(N)nc3c2)c2c(N)ncnc21

(A)
["< 6.52", "< 5.00", "> 7.50", "< 7.00"]

# credit: PubChem BioAssay AID2060332
